Biological target: 5-hydroxytryptamine receptor 2B (Rattus norvegicus)
Sequence (P30994 whole entry): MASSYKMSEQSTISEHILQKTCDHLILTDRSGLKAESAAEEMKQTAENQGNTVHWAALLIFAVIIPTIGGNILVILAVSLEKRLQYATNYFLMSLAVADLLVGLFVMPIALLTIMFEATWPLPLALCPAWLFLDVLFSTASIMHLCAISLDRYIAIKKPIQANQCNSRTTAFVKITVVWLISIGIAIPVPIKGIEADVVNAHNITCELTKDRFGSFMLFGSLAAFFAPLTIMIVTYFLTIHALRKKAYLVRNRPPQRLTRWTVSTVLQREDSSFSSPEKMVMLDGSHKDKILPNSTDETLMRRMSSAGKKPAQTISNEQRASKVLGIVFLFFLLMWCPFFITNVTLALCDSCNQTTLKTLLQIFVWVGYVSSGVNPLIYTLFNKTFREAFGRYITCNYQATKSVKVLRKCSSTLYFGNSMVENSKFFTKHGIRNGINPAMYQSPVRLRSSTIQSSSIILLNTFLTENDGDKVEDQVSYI
Assay: Inhibition of 5-HT binding to 5-HT2B receptor of Rat stomach fundus
Assay type: tissue-based
Conditions: read-out: pA2 (converted)
experimental_endpoint: Kb (nM)

| smiles_str | Kb (nM) |
| --- | --- |
| CCn1ccc2cc3c(cc21)CCN3C(=O)Nc1cccnc1 | 10 |
| Cn1ccc2c3c(ccc21)N(C(=O)Nc1cccnc1)CC3 | 15.8 |
| O=C(Nc1cccnc1)N1CCc2cc3[nH]ccc3cc21 | 31.6 |
| CC(C)n1ccc2cc3c(cc21)CCN3C(=O)Nc1cccnc1 | 6.31 |
| CN1CCc2cc3c(cc21)CCN3C(=O)Nc1cccnc1 | 12.6 |
| CCCn1ccc2cc3c(cc21)CCN3C(=O)Nc1cccnc1 | 7.94 |
| Cn1ccc2cc3c(cc21)CCN3C(=O)Nc1cccnc1 | 3.16 |
| O=C(Nc1cccnc1)N1CCc2cc3c(ccn3Cc3ccccc3)cc21 | 200 |

(A) Cc1cc2cc3c(cc2n1C)CCN3C(=O)Nc1cccnc1
(B) O=C(Nc1cccnc1)N1CCc2cc3sccc3cc21
(C) Cc1coc2cc3c(cc12)CCN3C(=O)Nc1cccnc1
Query :: Hi! Can you put these in order of Kb, lowest number first? Write the labels, ordered according to the request.
Result :: C, B, A
(C: 1.26 nM, B: 10 nM, A: 20 nM)

====

Biological target: 5-hydroxytryptamine receptor 2A (Rattus norvegicus)
Sequence (P14842 whole entry): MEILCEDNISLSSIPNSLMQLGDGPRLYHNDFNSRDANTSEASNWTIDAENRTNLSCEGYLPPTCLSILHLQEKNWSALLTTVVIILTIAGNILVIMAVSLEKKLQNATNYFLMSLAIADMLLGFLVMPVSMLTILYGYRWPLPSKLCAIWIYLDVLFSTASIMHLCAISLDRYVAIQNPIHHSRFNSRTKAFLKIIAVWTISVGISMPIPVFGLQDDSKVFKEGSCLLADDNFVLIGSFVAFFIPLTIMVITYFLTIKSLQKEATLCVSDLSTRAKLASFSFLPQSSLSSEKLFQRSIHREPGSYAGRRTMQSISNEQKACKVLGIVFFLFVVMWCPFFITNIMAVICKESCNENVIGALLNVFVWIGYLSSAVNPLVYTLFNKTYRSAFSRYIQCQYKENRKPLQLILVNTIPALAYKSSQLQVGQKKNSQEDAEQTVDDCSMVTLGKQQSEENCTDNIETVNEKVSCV
Assay: Displacement of [3H]ketanserin from 5-HT2A receptor of rat frontal cortex
Assay type: tissue-based
experimental_endpoint: Ki (nM)

(a) Cc1coc2cc3c(cc12)CCN3C(=O)Nc1cccnc1
(b) O=C(Nc1cccnc1)N1CCc2cc3sccc3cc21
(c) Cn1ccc2ccc3c(c21)CCN3C(=O)Nc1cccnc1
Query :: For the compounds shown above, give the order from largest Ki to smallest. Please respond with the labels ordered as the question requires.
Result :: c, a, b
(c: 3160 nM, a: 398 nM, b: 251 nM)

====

Target: Serotonin receptor 2a and 2c (5HT2A and 5HT2C) (Rattus norvegicus) (UniProt P08909+P14842)
Sequence (P14842 whole entry, looked up, one chain of several): as the sequence (P14842 whole entry) above
Assay: Relative affinity for 5-hydroxytryptamine 2C over 5-hydroxytryptamine 2A receptors
Assay type: protein assay
experimental_endpoint: Selectivity ratio

(P) Cn1ccc2cc3c(cc21)CCN3C(=O)Nc1cccnc1
(Q) Cc1coc2cc3c(cc12)CCN3C(=O)Nc1cccnc1
(R) CC(C)n1ccc2cc3c(cc21)CCN3C(=O)Nc1cccnc1
Query :: Ranking field: Selectivity ratio; order: falling. Provide the labels, sequenced as the question asks.
Result :: R, Q, P
(R: 400, Q: 160, P: 100)

(I) O=C(Nc1cccnc1)N1CCc2cc3[nH]ccc3cc21
(II) CCn1ccc2cc3c(cc21)CCN3C(=O)Nc1cccnc1
Query :: When their Selectivity ratio values are compared, which is larger, I or II ? Return value: the label identifying the chosen record.
Result :: II

(a) CCCn1ccc2cc3c(cc21)CCN3C(=O)Nc1cccnc1
(b) CN1CCc2cc3c(cc21)CCN3C(=O)Nc1cccnc1
(c) O=C(Nc1cccnc1)N1CCc2cc3sccc3cc21
Query :: Ascending sort, Selectivity ratio. Answer format: list of labels, ordered as asked.
Result :: c, b, a
(c: 30, b: 80, a: 250)

(1) Cc1cc2cc3c(cc2n1C)CCN3C(=O)Nc1cccnc1
(2) Cn1ccc2ccc3c(c21)CCN3C(=O)Nc1cccnc1
Query :: # query: argmin of Selectivity ratio over 1 and 2 Lab log: write the label of the selected item as the result.
Result :: 2
(2: 50, 1: 80)

====

Biological target: 5-hydroxytryptamine receptor 2C (Rattus norvegicus, UniProt P08909)
Sequence (P08909 whole entry): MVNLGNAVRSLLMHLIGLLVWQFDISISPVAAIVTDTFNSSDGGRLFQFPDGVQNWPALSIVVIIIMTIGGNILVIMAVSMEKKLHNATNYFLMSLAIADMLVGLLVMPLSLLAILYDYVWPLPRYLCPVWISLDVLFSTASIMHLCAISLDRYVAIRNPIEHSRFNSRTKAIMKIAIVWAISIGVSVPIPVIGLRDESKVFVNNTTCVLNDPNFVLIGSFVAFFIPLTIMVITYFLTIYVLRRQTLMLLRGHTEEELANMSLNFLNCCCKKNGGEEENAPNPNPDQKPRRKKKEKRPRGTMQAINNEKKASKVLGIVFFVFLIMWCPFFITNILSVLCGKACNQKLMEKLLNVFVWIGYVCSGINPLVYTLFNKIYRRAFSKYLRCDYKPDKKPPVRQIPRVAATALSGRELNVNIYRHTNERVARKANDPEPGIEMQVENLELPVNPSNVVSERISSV
experimental_endpoint: Ki (nM)

Here is how some compounds turned out for Ki.
| smiles_str | Ki, nM |
| --- | --- |
| O=C(Nc1cccnc1)N1CCc2cc3c(ccn3Cc3ccccc3)cc21 | 50.1 |
| CCn1ccc2cc3c(cc21)CCN3C(=O)Nc1cccnc1 | 7.94 |

(A) Cn1ccc2ccc3c(c21)CCN3C(=O)Nc1cccnc1
(B) CCCn1ccc2cc3c(cc21)CCN3C(=O)Nc1cccnc1
Query :: Lowest Ki? choose A or B Identify your pick by its label.
Result :: B
